All values here come from the supplement of paper PMC4862054.

test system: Hs578T; assay: normalised viability (% of control), CellTiter-Blue; higher = more viable cells (about 100 = DMSO control); details: 1000 nM; incubation time: 72 h
// reported normalised viability for each item listed
Return type: number; implicit unit %.

Look over these answered cases.
>  <compound>
CN(N=O)C(=O)N[C@@H](C=O)[C@@H](O)[C@H](O)[C@H](O)CO [Streptozocin]

>  <meas.value>
103

$$$$
>  <compound>
CCN(CCCOc1ccc2c(Nc3cc(CC(=O)Nc4cccc(F)c4)[nH]n3)ncnc2c1)CCOP(=O)(O)O [Barasertib]

>  <meas.value>
70.7

$$$$
>  <compound>
NCC(=O)CCC(=O)O [Aminolevulinic acid]

>  <meas.value>
104

$$$$

The record that follows has no normalised viability shown yet.
Problem: I'd like to know its normalised viability. The compound in question is C[C@]12CC[C@@H]3c4ccc(O)cc4C[C@@H](CCCCCCCCC[S+]([O-])CCCC(F)(F)C(F)(F)F)[C@H]3[C@@H]1CC[C@@H]2O (some centres undefined) [Fulvestrant]
Solution: 91.7

###

system: CAL-148; assay: drug sensitivity score (DSS), CellTiter-Blue viability (DSS (AUC-based score)); higher = stronger viability inhibition; extreme values may be limits of the assay; details: incubation time: 72 h
measure.name: drug sensitivity score
Answer with the value's number alone.

Completed entries (count: 5):
>  <compound>
CC(C)Cn1cnc2c(N)nc3ccccc3c21

>  <meas.value>
0

$$$$
>  <compound>
CCC1=C[C@@H]2CN(C1)Cc1c([nH]c3ccccc13)[C@@](C(=O)OC)(c1cc3c(cc1OC)N(C)[C@H]1[C@@](O)(C(=O)OC)[C@H](OC(C)=O)[C@]4(CC)C=CCN5CC[C@]31[C@@H]54)C2

>  <meas.value>
22.5

$$$$
>  <compound>
CCC1(c2ccc(N)cc2)CCC(=O)NC1=O (configuration not stated) [Aminoglutethimide]

>  <meas.value>
0

$$$$
>  <compound>
Cc1ccc(-n2nc(C(C)(C)C)cc2NC(=O)Nc2ccc(OCCN3CCOCC3)c3ccccc23)cc1

>  <meas.value>
0

$$$$
>  <compound>
CN(C)/N=N/c1[nH]cnc1C(N)=O

>  <meas.value>
0

$$$$

Problem: GET /values?readout=drug sensitivity score&item= O=C1CCC(N2C(=O)c3ccccc3C2=O)C(=O)N1 (configuration not stated) [Thalidomide]
Solution: 0

Problem: Could you share which drug sensitivity score value was measured for C[C@@H](Oc1cc(-c2cnn(C3CCNCC3)c2)cnc1N)c1c(Cl)ccc(F)c1Cl ?
Solution: 2.67

###

Each entry below carries its reported normalised response.
tested on: MDA-MB-436; experiment: normalised response (% of control), CellTox Green; higher = less cell death (100 = DMSO, 0 = benzethonium chloride kill control); conditions: incubation time: 72 h
Quick note: give the figure in %, leave out the unit.

For orientation, consider the following solved cases.
>  <compound>
Cc1ccc(C(=O)N(CCCN)[C@@H](c2oc3cc(Cl)ccc3c(=O)c2Cc2ccccc2)C(C)C)cc1 (10 nM)

>  <normalised response [%]>
100

$$$$
>  <compound>
N[C@@H](CSC(c1ccccc1)(c1ccccc1)c1ccccc1)C(=O)O [S-trityl-L-cysteine] (40000 nM)

>  <normalised response [%]>
107

$$$$
>  <compound>
O=P1(NCCCl)OCCCN1CCCl (centres undefined) [Ifosfamide] (10000 nM)

>  <normalised response [%]>
82.4

$$$$

Problem: // returns reported normalised response for input CC(=O)Nc1ccc(C(=O)Nc2ccccc2N)cc1 [Tacedinaline] (100 nM)
Solution: 110

###

tested on: BT-474; assay: normalised viability (% of control), CellTiter-Blue; higher = more viable cells (100 = DMSO, 0 = benzethonium chloride kill control); settings: incubation time: 72 h
measure.name: normalised viability

>  <compound>
Cc1ccc(C(=O)Nc2ccc(CN3CCN(C)CC3)c(C(F)(F)F)c2)cc1C#Cc1cnc2cccnn12 [Ponatinib] (0.1 nM)

>  <measure.name>
normalised viability

>  <meas.value>
90.1%

$$$$
>  <compound>
COc1cc2nccc(Oc3ccc(NC(=O)C4(C(=O)Nc5ccc(F)cc5)CC4)cc3)c2cc1OC [Cabozantinib] (0.1 nM)

>  <measure.name>
normalised viability

>  <meas.value>
100%

$$$$

Turning to the following compound.
Problem: I am curious: what normalised viability value has been reported for COc1cc([C@@H]2c3cc4c(cc3[C@@H](O[C@@H]3O[C@@H]5CO[C@@H](C)O[C@H]5[C@H](O)[C@H]3O)[C@H]3COC(=O)[C@H]23)OCO4)cc(OC)c1O [Etoposide] (1 nM) ?
Solution: 91.5%

###

// reported normalised viability for each item listed
tested on: CAL-85-1; assay: normalised viability (% of control), CellTiter-Blue; higher = more viable cells (100 = DMSO, 0 = benzethonium chloride kill control); details: incubation time: 72 h
Enter your answer as a number in %; do not include the unit.

A selection of reference data follows.
>  <compound>
C[C@@H](Oc1cc(-c2cnn(C3CCNCC3)c2)cnc1N)c1c(Cl)ccc(F)c1Cl [Crizotinib] (1 nM)

>  <unit.string>
%

>  <meas.value>
83.9

$$$$
>  <compound>
Cc1ccc(-n2nc(C(C)(C)C)cc2NC(=O)Nc2ccc(OCCN3CCOCC3)c3ccccc23)cc1 [Doramapimod] (1 nM)

>  <unit.string>
%

>  <meas.value>
100

$$$$
>  <compound>
Clc1ccc(Nc2nnc(Cc3ccncc3)c3ccccc23)cc1 [Vatalanib] (1 nM)

>  <unit.string>
%

>  <meas.value>
94.3

$$$$
>  <compound>
CCC1(c2ccc(N)cc2)CCC(=O)NC1=O (stereo unspecified) [Aminoglutethimide] (1 nM)

>  <unit.string>
%

>  <meas.value>
115

$$$$
>  <compound>
NC(=O)Nc1cc(-c2cccc(F)c2)sc1C(=O)N[C@H]1CCCNC1 [AZD 7762] (0.1 nM)

>  <unit.string>
%

>  <meas.value>
107

$$$$

# ---- query compound ----
Problem: Lookup: normalised viability / CAL-85-1 / O=P1(NCCCl)OCCCN1CCCl (stereo unspecified) [Ifosfamide] (1 nM)
Solution: 84.3

###

system: HCC1937; assay: normalised response (% of control), CellTox Green; higher = less cell death (100 = DMSO, 0 = benzethonium chloride kill control); conditions: incubation time: 72 h
measure.name: normalised response (%)
Quick note: give the figure in %, leave out the unit.

>  <molecule>
CC1(C)NC(=O)N(c2ccc([N+](=O)[O-])c(C(F)(F)F)c2)C1=O [Nilutamide] (100 nM)

>  <experimental.target>
HCC1937

>  <unit.string>
%

>  <normalised response>
119

$$$$
>  <molecule>
Cn1c(Nc2ccc(C(F)(F)F)cc2)nc2cc(Oc3ccnc(-c4ncc(C(F)(F)F)[nH]4)c3)ccc21 [RAF265] (100 nM)

>  <experimental.target>
HCC1937

>  <unit.string>
%

>  <normalised response>
109

$$$$
>  <molecule>
C[C@]12CC[C@@H]3c4ccc(O)cc4C[C@@H](CCCCCCCCC[S+]([O-])CCCC(F)(F)C(F)(F)F)[C@H]3[C@@H]1CC[C@@H]2O (some centres undefined) [Fulvestrant] (1000 nM)

>  <experimental.target>
HCC1937

>  <unit.string>
%

>  <normalised response>
98.5

$$$$
>  <molecule>
C#Cc1cccc(Nc2ncnc3cc(OCCOC)c(OCCOC)cc23)c1 [Erlotinib] (1000 nM)

>  <experimental.target>
HCC1937

>  <unit.string>
%

>  <normalised response>
121

$$$$
>  <molecule>
C[C@@H](Oc1cc(-c2cnn(C3CCNCC3)c2)cnc1N)c1c(Cl)ccc(F)c1Cl [Crizotinib] (100 nM)

>  <experimental.target>
HCC1937

>  <unit.string>
%

>  <normalised response>
79.2

$$$$
>  <molecule>
CO[C@H]1/C=C\C=C(/C)C(=O)NC2=CC(=O)C(NCCN(C)C)=C(C[C@@H](C)C[C@H](OC)[C@H](O)[C@@H](C)/C=C(\C)[C@@H]1OC(N)=O)C2=O [Alvespimycin] (10 nM)

>  <experimental.target>
HCC1937

>  <unit.string>
%

>  <normalised response>
118

$$$$
>  <molecule>
CCC(C)(C)C(=O)O[C@H]1C[C@@H](C)C=C2C=C[C@H](C)[C@H](CC[C@@H]3C[C@@H](O)CC(=O)O3)[C@H]21 [Simvastatin] (10000 nM)

>  <experimental.target>
HCC1937

>  <unit.string>
%

>  <normalised response>
95.6

$$$$
>  <molecule>
C#Cc1cccc(Nc2ncnc3cc(OCCOC)c(OCCOC)cc23)c1 [Erlotinib] (100 nM)

>  <experimental.target>
HCC1937

>  <unit.string>
%

>  <normalised response>
107

$$$$
>  <molecule>
O=C(CCCCCCC(=O)Nc1ccc([C@H]2O[C@@H](CSc3nc(-c4ccccc4)c(-c4ccccc4)o3)C[C@@H](c3ccc(CO)cc3)O2)cc1)NO [Tubacin] (1000 nM)

>  <experimental.target>
HCC1937

>  <unit.string>
%

>  <normalised response>
55.1

$$$$
>  <molecule>
CN[C@@H]1C[C@H]2O[C@@](C)([C@@H]1OC)n1c3ccccc3c3c4c(c5c6ccccc6n2c5c31)C(=O)N[C@H]4O [UCN-01] (1000 nM)

>  <experimental.target>
HCC1937

>  <unit.string>
%

>  <normalised response>
106

$$$$

Problem: Could you share what normalised response was measured for Cc1ccc(C(=O)Nc2ccc(CN3CCN(C)CC3)c(C(F)(F)F)c2)cc1C#Cc1cnc2cccnn12 [Ponatinib] (1000 nM) , tested on HCC1937?
Solution: 15

Problem: Return normalised response measured with HCC1937 given this molecule: N.N.[Cl][Pt][Cl] [Cisplatin] (10 nM)
Solution: 90.6

Problem: Report normalised response for Oc1nc(-c2ccc(C(F)(F)F)cc2)nc2c1CSCC2 [XAV-939] (10000 nM) tested on HCC1937.
Solution: 93.2

Problem: Which normalised response is reported with HCC1937 for this entry: Cn1c(Nc2ccc(C(F)(F)F)cc2)nc2cc(Oc3ccnc(-c4ncc(C(F)(F)F)[nH]4)c3)ccc21 [RAF265] (1000 nM) ?
Solution: 82
